# SYSTEM UNDER TEST: Sodium-dependent serotonin transporter (Rattus norvegicus)
# Sequence (P31652 whole entry): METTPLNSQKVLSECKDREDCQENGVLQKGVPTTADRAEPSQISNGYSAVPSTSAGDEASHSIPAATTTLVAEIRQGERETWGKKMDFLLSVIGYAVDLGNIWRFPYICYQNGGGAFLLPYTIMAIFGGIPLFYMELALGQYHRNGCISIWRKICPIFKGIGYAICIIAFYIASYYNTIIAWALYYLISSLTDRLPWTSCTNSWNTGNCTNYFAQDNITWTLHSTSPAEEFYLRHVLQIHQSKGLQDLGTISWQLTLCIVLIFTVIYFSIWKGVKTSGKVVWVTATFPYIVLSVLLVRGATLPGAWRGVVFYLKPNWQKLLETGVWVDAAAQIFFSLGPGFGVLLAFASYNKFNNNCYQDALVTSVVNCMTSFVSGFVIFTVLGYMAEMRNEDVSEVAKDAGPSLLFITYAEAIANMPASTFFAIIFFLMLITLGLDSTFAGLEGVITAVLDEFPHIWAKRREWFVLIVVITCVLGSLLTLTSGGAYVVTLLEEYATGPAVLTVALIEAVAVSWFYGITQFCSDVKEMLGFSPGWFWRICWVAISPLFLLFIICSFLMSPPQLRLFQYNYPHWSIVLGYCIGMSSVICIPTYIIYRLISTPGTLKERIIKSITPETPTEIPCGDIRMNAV
# TEST: In vitro inhibitory constant against [3H]paroxetine binding to rat frontal cortex membrane serotonin reuptake site
Ki strictly under 600 pM means True; at 600 pM or over means False.

- MOLECULE: "c1cc2c(c(N3CCN(CCCc4c[nH]c5ccccc45)CC3)c1)CCCN2"
  CATEGORY LABEL: "False"
- MOLECULE: "C[C@H]1Oc2c(cccc2N2CCN(CCCc3c[nH]c4ccc(F)cc34)CC2)NC1=O"
  CATEGORY LABEL: "True"
- MOLECULE: "C[C@@H]1Oc2c(cccc2N2CCN(CCCc3c[nH]c4c(F)cccc34)CC2)NC1=O"
  CATEGORY LABEL: "False"
- MOLECULE: "CC1CNc2cccc(N3CCN(CCCc4c[nH]c5ccccc45)CC3)c2C1 (stereo not given)"
  CATEGORY LABEL: "False"
- MOLECULE: "Cc1ccc2[nH]cc(CCCN3CCN(c4cccc5c4OCCO5)CC3)c2c1"
  CATEGORY LABEL: "True"
- MOLECULE: "c1cc2c(c(N3CCN(CCc4c[nH]c5ccccc45)CC3)c1)OCCO2"
  CATEGORY LABEL: "False"
- MOLECULE: "C[C@@H]1Oc2c(cccc2N2CCN(CCCc3c[nH]c4ccc(F)cc34)CC2)NC1=O"
  CATEGORY LABEL: "False"
- MOLECULE: "c1cc2c(c(N3CCN(CCCc4c[nH]c5ccccc45)CC3)c1)OCCN2"
  CATEGORY LABEL: "False"
- MOLECULE: "CC1Oc2c(cccc2N2CCN(CCCc3c[nH]c4ccccc34)CC2)NC1=O (stereo not given)"
  CATEGORY LABEL: "True"
